Where a name gives a salt, the structure may show the parent alone.
measured_quantity: melting point (°C)
Just the number in °C, nothing appended.

{"columns": ["compound", "measured_value"],
 "data": [
  ["COC(=O)C1(NC(=O)c2ccc(-c3ccccc3Cl)c(-c3ccc(Cl)c(OCCCN(C)C)c3)n2)C2CC3CC(C2)CC1C3 (stereo not drawn) (as salt: hydrochloride)", 135],
  ["COC(=O)C1(NC(=O)c2ccc(-n3nc(C)cc3C)c(-c3ccc(Cl)c(OCCCN(C)C)c3)n2)CCCCC1 (as salt: hydrochloride)", 158],
  ["COC(=O)C1(NC(=O)c2cnc(-c3ccc(C)cc3C)c(-c3ccc(Cl)c(OCCCN(C)C)c3)n2)CCCCC1 (as salt: hydrochloride)", 118]
]}

Ask | Tell me the measured melting point of CCOC(=O)C[C@H](NC(=O)c1ccc(-c2ccccc2C)c(-c2ccc(Cl)c(OCCCN(C)C)c2)n1)C(C)(C)C (as salt: hydrochloride) , please.
Reply | 90

Ask | Now the compound CCOc1ccc(Cl)c(-c2ncc(C(=O)N[C@@H](CC(=O)OC)C(C)(C)C)nc2-c2ccc(Cl)c(OCCCN(C)C)c2)c1 (as salt: hydrochloride)
Reply | 112

Ask | // same read-out, input: COC(=O)C1(NC(=O)c2ccc(-c3cc(C4CC4)ccc3C)c(-c3ccc(Cl)c(OCCCN(C)C)c3)n2)CCCCC1 (as salt: hydrochloride)
Reply | 114

---

Known melting point of a selection of molecules
Counter-ions that a name gives are not always drawn.
Hi! Could you send only the number? It should be in °C, unit omitted.

Before answering, review these 5 worked examples.
{"columns": ["molecule", "measured_value"],
 "data": [
  ["COC(=O)C1(NC(=O)c2ccc(-c3ncc(C)cc3Cl)c(-c3ccc(Cl)c(OCCCN(C)C)c3)n2)CCCCC1 (as salt: hydrochloride)", 152],
  ["COC(=O)C1(NC(=O)c2ccc(-c3cc4c(cc3C)OCO4)c(-c3ccc(Cl)c(OCCCN(C)C)c3)n2)CCCCC1 (as salt: hydrochloride)", 138],
  ["COC(=O)C1(NC(=O)c2ccc(-c3ccccc3C)c(-c3ccc(Cl)c(OCCCN(C)C)c3)n2)CCCCC1 (as salt: hydrochloride)", 115],
  ["COC(=O)C1(NC(=O)c2ccc(-c3ccc(O)cc3C)c(-c3ccc(Cl)c(OCCCN(C)C)c3)n2)CCCCC1 (as salt: hydrochloride)", 270],
  ["Cc1ccccc1-c1ccc(C(=O)N[C@@H](CCO)C(C)(C)C)nc1-c1ccc(Cl)c(OCCCN(C)C)c1 (as salt: hydrochloride)", 93]
]}

Ask | Any idea what melting point was measured for COC(=O)C1(NC(=O)c2ccc(-c3ncc(Cl)cc3Cl)c(-c3ccc(Cl)c(OCCCN(C)C)c3)n2)CCCCC1 (as salt: hydrochloride) ?
Reply | 168

---

Target protein (sequence): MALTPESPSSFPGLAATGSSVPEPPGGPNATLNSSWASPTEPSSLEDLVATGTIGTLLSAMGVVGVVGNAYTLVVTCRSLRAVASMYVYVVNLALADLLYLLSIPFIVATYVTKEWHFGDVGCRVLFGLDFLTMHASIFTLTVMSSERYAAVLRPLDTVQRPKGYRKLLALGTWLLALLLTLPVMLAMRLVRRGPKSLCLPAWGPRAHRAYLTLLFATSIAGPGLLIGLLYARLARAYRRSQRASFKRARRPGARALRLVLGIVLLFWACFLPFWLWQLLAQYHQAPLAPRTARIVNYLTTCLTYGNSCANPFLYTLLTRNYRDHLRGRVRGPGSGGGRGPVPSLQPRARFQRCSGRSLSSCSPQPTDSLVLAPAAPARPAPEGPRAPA
measured_quantity: IC50 (nM)
Express the result in nM but write the number alone.

{"columns": ["compound", "IC50, nM"],
 "data": [
  ["COC(=O)C1(NC(=O)c2ccc(-c3cc(C4CC4)ccc3C)c(-c3ccc(Cl)c(OCCCN(C)C)c3)n2)CCCCC1 [Compound 7]", 330],
  ["COC(=O)C1(NC(=O)c2ccc(-c3ccccc3C)c(-c3ccc(Cl)c(OCCCN(C)C)c3)n2)CCCCC1 [Compound 4]", 630],
  ["CCCOc1ccc(Cl)c(-c2ccc(C(=O)NC3(C(=O)OC)CCCCC3)nc2-c2ccc(Cl)c(OCCCN(C)C)c2)c1 [Compound 9]", 1400]
]}

Ask | Could you share which IC50 value was measured for COC(=O)C1(NC(=O)c2ccc(-c3ncc(C)cc3Cl)c(-c3ccc(Cl)c(OCCCN(C)C)c3)n2)CCCCC1 [Compound 5] ?
Reply | 540

Ask | Now give it for COC(=O)[C@]1(NC(=O)c2ccc(-c3ccccc3C)c(-c3ccc(Cl)c(OCCCN(C)C)c3)n2)CC[C@@H](O)CC1 [Compound 42] too.
Reply | 95

Ask | Repeat with COC(=O)[C@]1(NC(=O)c2ccc(-c3ncc(C)cc3Cl)c(-c3ccc(Cl)c(OCCCN(C)C)c3)n2)CC[C@@H](O)CC1 [Compound 44]
Reply | 660

---

melting point listing for selected molecules.
Counter-ions that a name gives are not always drawn.
// return numeric value only (unit: °C, not printed)

{"columns": ["molecule", "melting point [°C]"],
 "data": [
  ["COC(=O)C1(NC(=O)c2ccc(-c3ncc(C)cc3C)c(-c3ccc(Cl)c(OCCCN(C)C)c3)n2)CCCCC1 (as salt: hydrochloride) [Compound 13]", 176]
]}

Ask | Can you look up the measured melting point of CCCOc1ccc(Cl)c(-c2ccc(C(=O)NC3(C(=O)OC)CCCCC3)nc2-c2ccc(Cl)c(OCCCN(C)C)c2)c1 (as salt: hydrochloride) [Compound 9] for me?
Reply | 117

Ask | Next: CNC(=O)C[C@H](NC(=O)c1ccc(-c2ccccc2C)c(-c2ccc(Cl)c(OCCCN(C)C)c2)n1)C(C)(C)C (as salt: hydrochloride) [Compound 33]
Reply | 152
